Overview of reported EC50 (nM), OVCAR 5 cells (cAMP) across a group of binders:
tested.target: T1, RXFP1 receptor (UniProt Q9HBX9 1-757, limits assumed)
T1 sequence (looked up): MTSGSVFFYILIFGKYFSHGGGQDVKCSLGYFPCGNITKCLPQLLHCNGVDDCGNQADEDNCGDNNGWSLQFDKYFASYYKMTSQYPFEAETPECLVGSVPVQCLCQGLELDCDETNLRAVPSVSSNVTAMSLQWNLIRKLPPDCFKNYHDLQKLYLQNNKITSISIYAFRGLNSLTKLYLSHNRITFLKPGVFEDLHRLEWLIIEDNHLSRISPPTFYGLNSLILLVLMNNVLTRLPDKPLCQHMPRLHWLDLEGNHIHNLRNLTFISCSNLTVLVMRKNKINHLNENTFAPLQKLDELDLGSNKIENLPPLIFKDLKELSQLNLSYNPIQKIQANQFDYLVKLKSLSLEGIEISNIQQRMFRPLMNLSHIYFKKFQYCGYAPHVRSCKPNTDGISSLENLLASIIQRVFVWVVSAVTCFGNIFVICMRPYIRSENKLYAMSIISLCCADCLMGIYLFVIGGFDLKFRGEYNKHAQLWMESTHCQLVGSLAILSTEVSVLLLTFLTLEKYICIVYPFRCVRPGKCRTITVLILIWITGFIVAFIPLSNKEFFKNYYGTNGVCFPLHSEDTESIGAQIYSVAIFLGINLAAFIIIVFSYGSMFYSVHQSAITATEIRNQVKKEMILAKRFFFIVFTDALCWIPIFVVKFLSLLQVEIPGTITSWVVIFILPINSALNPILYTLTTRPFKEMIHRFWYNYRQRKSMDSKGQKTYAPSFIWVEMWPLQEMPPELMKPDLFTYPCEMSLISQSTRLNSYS
assay.summary: cell-based or functional assay
*1 amine or outer side, *2 acyl side, *3 side chain or, on linkers, in order; H or OH if unused. Primed or numbered codes have the meaning given here. Side-chain parts run from the residue outwards. [ ]: non-standard residue; d: D form. The star is where a group is joined. TTDS″ = 4-[3-[2-[2-(3-aminopropoxy)ethoxy]ethoxy]propylamino]-4-oxo-butanoyl; γGlu = O=C(O)[C@H](CCC(=O)[*:2])N[*:1]; Pentadecanoyl = CCCCCCCCCCCCCCC(=O)*; Stearoyl = CCCCCCCCCCCCCCCCCC(=O)*; Palmitoyl = CCCCCCCCCCCCCCCC(=O)*; Cit = NC(=O)NCCC[C@H](N)C(=O)O; αMeK = C[C@](N)(CCCCN)C(=O)O; Nle = CCCC[C@H](N)C(=O)O; PEG2′ = PEG2 spacer unit; PEG2″ = not defined here; Aib = CC(C)(N)C(=O)O
Value expressed in nM; do not type the unit.

These solved cases illustrate the format of a correct answer.
Ac-LEGREKVRAK(Ac)I[Aib][Aib]EG[Nle]STWS[αMeK][Cit]AK(Ac)K([PEG2′-PEG2′-PEG2′-PEG2′-γGlu-γGlu-γGlu-Stearoyl])-NH2 [peptide of SEQ ID NO: 132]; 1.7
Ac-LEGREKVRAQI[Aib][Aib]EG[Nle]STWS[Aib]RKK(Ac)[PEG2′][PEG2′][PEG2′][γGlu][γGlu]K([γGlu-Palmitoyl])-NH2 [peptide of SEQ ID NO: 119]; 1.21
Ac-LEGREKVRAQI[Aib][Aib]EG[Nle]STWS[Aib]RKKK([PEG2′-PEG2′-γGlu-γGlu-γGlu-PEG2′-Stearoyl])-NH2 [peptide of SEQ ID NO: 98]; 0.74
Ac-LEGREKVRAK(Ac)I[Aib][Aib]EG[Nle]STWS[αMeK][Cit]KK(Ac)K([PEG2′-PEG2′-PEG2′-γGlu-γGlu-γGlu-Stearoyl])-NH2 [peptide of SEQ ID NO: 129]; 1
Ac-LEGREKVRAQI[Aib][Aib]EG[Nle]STWS[Aib]RKKK[PEG2″][PEG2″][PEG2″][γGlu][γGlu]K([γGlu-Palmitoyl])-NH2 [peptide of SEQ ID NO: 109]; 0.15
Ac-LEGREKVRAK(Ac)I[Aib][Aib]EG[Nle]STWS[Aib]RKK(Ac)K([TTDS″-TTDS″-γGlu-γGlu-γGlu-Palmitoyl])-NH2 [peptide of SEQ ID NO: 166]; 0.26
Ac-LEGREKVRAK(Ac)I[Aib][Aib]EG[Nle]STYS[Aib]RKK(Ac)K([PEG2″-PEG2″-PEG2″-γGlu-γGlu-γGlu-Stearoyl])-NH2 [peptide of SEQ ID NO: 78]; 1.04
Ac-LEGREKVRAK(Ac)I[Aib][Aib]EG[Nle]STWS[Aib]RKK([PEG2′-PEG2′-PEG2′-γGlu-γGlu-γGlu-Stearoyl])-NH2 [peptide of SEQ ID NO: 83]; 0.85
Ac-LEGREKVRAK(Ac)I[Aib][Aib]EG[Nle]STWS[Aib]RKKK([PEG2′-PEG2′-γGlu-γGlu-γGlu-Palmitoyl])-NH2 [peptide of SEQ ID NO: 60]; 0.11
Ac-LEGREKVRAK(Ac)I[Aib][Aib]EG[Nle]STFS[αMeK]RAK(Ac)[PEG2′][PEG2′][PEG2′][PEG2′]K([γGlu-γGlu-γGlu-γGlu-Pentadecanoyl])-NH2 [peptide of SEQ ID NO: 167]; 0.05

Read the next record carefully.
Exercise: Name the recorded EC50 (nM), OVCAR 5 cells (cAMP) of the item Ac-LEGREKVRAQI[Aib][Aib]EG[Nle]STWS[Aib]RK[PEG2″][PEG2″]K([γGlu-γGlu-γGlu-Palmitoyl])-NH2 [peptide of SEQ ID NO: 11] in your answer.
Key: 14.7

The values you see were collected from patent US20190233493A1.
